test system: Staphylococcus epidermidis; assay: Antimicrobial activity against Staphylococcus epidermidis ATCC 12228 by broth dilution method; format: functional
Where a SMILES comes first, the peptide text is derived from it. [ ]: non-standard residue; d: D form. Orn = NCCC[C@H](N)C(=O)O
Listed here are compounds together with their documented MIC.
experimental.endpoint: MIC (µg/mL)

- compound: "CC(C)C[C@@H]1NC(=O)[C@H](CCCN)NC(=O)[C@H](C(C)C)NC(=O)[C@@H]2CCCN2C(=O)[C@@H](Cc2ccccc2)NC(=O)[C@H](CC(C)C)NC(=O)[C@H](CCCN)NC(=O)[C@H](C(C)C)NC(=O)[C@@H]2CCCN2C(=O)[C@@H](Cc2ccccc2)NC1=O [GRAMICIDIN S] (cyclo(L[dF]PV[Orn]L[dF]PV[Orn]))"
  experimental.endpoint: "MIC"
  unit.abbreviation: "µg/mL"
  data.value: 8
- compound: "CC(C)[C@@H]1NC(=O)[C@H](CCCN)NC(=O)[C@@H]2CCCN2C(=O)[C@@H](Cc2ccccc2)NC(=O)[C@H](CCCN)NC(=O)[C@H](CC23CC4CC(CC(C4)C2)C3)NC(=O)[C@H](CCCN)NC(=O)[C@H](C23CC4CC(CC(C4)C2)C3)NC(=O)[C@H](CCCN)NC(=O)[C@@H]2CCCN2C(=O)[C@@H](Cc2ccccc2)NC(=O)[C@H](CCCN)NC(=O)[C@H](CC23CC4CC(CC(C4)C2)C3)NC(=O)[C@H](CCCN)NC1=O"
  experimental.endpoint: "MIC"
  unit.abbreviation: "µg/mL"
  data.value: 4
- compound: "CC(C)C[C@@H]1NC(=O)[C@H](CCCN)NC(=O)[C@H](C23CC4CC(CC(C4)C2)C3)NC(=O)[C@H](CCCN)NC(=O)[C@@H]2CCCN2C(=O)[C@@H](Cc2ccccc2)NC(=O)[C@H](CCCN)NC(=O)[C@H](CC23CC4CC(CC(C4)C2)C3)NC(=O)[C@H](CCCN)NC(=O)[C@H](C23CC4CC(CC(C4)C2)C3)NC(=O)[C@H](CCCN)NC(=O)[C@@H]2CCCN2C(=O)[C@@H](Cc2ccccc2)NC(=O)[C@H](CCCN)NC1=O"
  experimental.endpoint: "MIC"
  unit.abbreviation: "µg/mL"
  data.value: 8

* * *

system: Pseudomonas aeruginosa; test: Antimicrobial activity against Pseudomonas aeruginosa ATCC 27853 by broth dilution method; type: functional
Listed here are compounds together with their documented MIC.

- smiles.text: "CC(C)C[C@@H]1NC(=O)[C@H](CCCN)NC(=O)[C@H](C(C)C)NC(=O)[C@H](CCCN)NC(=O)[C@@H]2CCCN2C(=O)[C@@H](Cc2ccccc2)NC(=O)[C@H](CCCN)NC(=O)[C@H](CC(C)C)NC(=O)[C@H](CCCN)NC(=O)[C@H](C23CC4CC(CC(C4)C2)C3)NC(=O)[C@H](CCCN)NC(=O)[C@@H]2CCCN2C(=O)[C@@H](Cc2ccccc2)NC(=O)[C@H](CCCN)NC1=O"
  unit.abbreviation: "µg/mL"
  MIC: 8
- smiles.text: "CC(C)C[C@@H]1NC(=O)[C@H](CCCN)NC(=O)[C@H](C(C)C)NC(=O)[C@H](CCCN)NC(=O)[C@@H]2CCCN2C(=O)[C@@H](Cc2ccccc2)NC(=O)[C@H](CCCN)NC(=O)[C@H](CC(C)C)NC(=O)[C@H](CCCN)NC(=O)[C@H](C(C)C)NC(=O)[C@H](CCCN)NC(=O)[C@@H]2CCCN2C(=O)[C@@H](Cc2ccccc2)NC(=O)[C@H](CCCN)NC1=O"
  unit.abbreviation: "µg/mL"
  MIC: 64
- smiles.text: "CC(C)C[C@@H]1NC(=O)[C@H](CCCN)NC(=O)[C@H](C23CC4CC(CC(C4)C2)C3)NC(=O)[C@H](CCCN)NC(=O)[C@@H]2CCCN2C(=O)[C@@H](Cc2ccccc2)NC(=O)[C@H](CCCN)NC(=O)[C@H](CC23CC4CC(CC(C4)C2)C3)NC(=O)[C@H](CCCN)NC(=O)[C@H](C(C)C)NC(=O)[C@H](CCCN)NC(=O)[C@@H]2CCCN2C(=O)[C@@H](Cc2ccccc2)NC(=O)[C@H](CCCN)NC1=O"
  unit.abbreviation: "µg/mL"
  MIC: 16
- smiles.text: "CC(C)C[C@@H]1NC(=O)[C@H](CCCN)NC(=O)[C@H](C23CC4CC(CC(C4)C2)C3)NC(=O)[C@H](CCCN)NC(=O)[C@@H]2CCCN2C(=O)[C@@H](Cc2ccccc2)NC(=O)[C@H](CCCN)NC(=O)[C@H](CC23CC4CC(CC(C4)C2)C3)NC(=O)[C@H](CCCN)NC(=O)[C@H](C23CC4CC(CC(C4)C2)C3)NC(=O)[C@H](CCCN)NC(=O)[C@@H]2CCCN2C(=O)[C@@H](Cc2ccccc2)NC(=O)[C@H](CCCN)NC1=O"
  unit.abbreviation: "µg/mL"
  MIC: 16
- smiles.text: "NCCC[C@@H]1NC(=O)[C@H](CC23CC4CC(CC(C4)C2)C3)NC(=O)[C@H](CCCN)NC(=O)[C@H](C23CC4CC(CC(C4)C2)C3)NC(=O)[C@H](CCCN)NC(=O)[C@@H]2CCCN2C(=O)[C@@H](Cc2ccccc2)NC(=O)[C@H](CCCN)NC(=O)[C@H](CC23CC4CC(CC(C4)C2)C3)NC(=O)[C@H](CCCN)NC(=O)[C@H](C23CC4CC(CC(C4)C2)C3)NC(=O)[C@H](CCCN)NC(=O)[C@@H]2CCCN2C(=O)[C@@H](Cc2ccccc2)NC1=O"
  unit.abbreviation: "µg/mL"
  MIC: 64

* * *

tested on: Staphylococcus aureus; test: Antimicrobial activity against Staphylococcus aureus ATCC 29213 by broth dilution method; type: functional

- smiles.text: "CC(C)C[C@@H]1NC(=O)[C@H](CCCN)NC(=O)[C@H](C(C)C)NC(=O)[C@H](CCCN)NC(=O)[C@@H]2CCCN2C(=O)[C@@H](Cc2ccccc2)NC(=O)[C@H](CCCN)NC(=O)[C@H](CC(C)C)NC(=O)[C@H](CCCN)NC(=O)[C@H](C(C)C)NC(=O)[C@H](CCCN)NC(=O)[C@@H]2CCCN2C(=O)[C@@H](Cc2ccccc2)NC(=O)[C@H](CCCN)NC1=O"
  MIC / µg/mL: 64
- smiles.text: "CC(C)C[C@@H]1NC(=O)[C@H](CCCN)NC(=O)[C@H](C(C)C)NC(=O)[C@H](CCCN)NC(=O)[C@@H]2CCCN2C(=O)[C@@H](Cc2ccccc2)NC(=O)[C@H](CCCN)NC(=O)[C@H](CC23CC4CC(CC(C4)C2)C3)NC(=O)[C@H](CCCN)NC(=O)[C@H](C(C)C)NC(=O)[C@H](CCCN)NC(=O)[C@@H]2CCCN2C(=O)[C@@H](Cc2ccccc2)NC(=O)[C@H](CCCN)NC1=O"
  MIC / µg/mL: 16
- smiles.text: "CC(C)C[C@@H]1NC(=O)[C@H](CCCN)NC(=O)[C@H](C(C)C)NC(=O)[C@H](CCCN)NC(=O)[C@@H]2CCCN2C(=O)[C@@H](Cc2ccccc2)NC(=O)[C@H](CCCN)NC(=O)[C@H](CC(C)C)NC(=O)[C@H](CCCN)NC(=O)[C@H](C23CC4CC(CC(C4)C2)C3)NC(=O)[C@H](CCCN)NC(=O)[C@@H]2CCCN2C(=O)[C@@H](Cc2ccccc2)NC(=O)[C@H](CCCN)NC1=O"
  MIC / µg/mL: 16
- smiles.text: "CC(C)[C@@H]1NC(=O)[C@H](CCCN)NC(=O)[C@@H]2CCCN2C(=O)[C@@H](Cc2ccccc2)NC(=O)[C@H](CCCN)NC(=O)[C@H](CC23CC4CC(CC(C4)C2)C3)NC(=O)[C@H](CCCN)NC(=O)[C@H](C23CC4CC(CC(C4)C2)C3)NC(=O)[C@H](CCCN)NC(=O)[C@@H]2CCCN2C(=O)[C@@H](Cc2ccccc2)NC(=O)[C@H](CCCN)NC(=O)[C@H](CC23CC4CC(CC(C4)C2)C3)NC(=O)[C@H](CCCN)NC1=O"
  MIC / µg/mL: 16
- smiles.text: "NCCC[C@@H]1NC(=O)[C@H](CC23CC4CC(CC(C4)C2)C3)NC(=O)[C@H](CCCN)NC(=O)[C@H](C23CC4CC(CC(C4)C2)C3)NC(=O)[C@H](CCCN)NC(=O)[C@@H]2CCCN2C(=O)[C@@H](Cc2ccccc2)NC(=O)[C@H](CCCN)NC(=O)[C@H](CC23CC4CC(CC(C4)C2)C3)NC(=O)[C@H](CCCN)NC(=O)[C@H](C23CC4CC(CC(C4)C2)C3)NC(=O)[C@H](CCCN)NC(=O)[C@@H]2CCCN2C(=O)[C@@H](Cc2ccccc2)NC1=O"
  MIC / µg/mL: 64

* * *

Listed here are molecules together with their documented MIC.
test system: Staphylococcus aureus; assay: Antimicrobial activity against Staphylococcus aureus ATCC 29213 by broth dilution method; format: functional
Where a SMILES comes first, the peptide text is derived from it. [ ]: non-standard residue; d: D form. Orn = NCCC[C@H](N)C(=O)O

- molecule: "CC(C)C[C@@H]1NC(=O)[C@H](CCCN)NC(=O)[C@H](C(C)C)NC(=O)[C@H](CCCN)NC(=O)[C@@H]2CCCN2C(=O)[C@@H](Cc2ccccc2)NC(=O)[C@H](CCCN)NC(=O)[C@H](CC23CC4CC(CC(C4)C2)C3)NC(=O)[C@H](CCCN)NC(=O)[C@H](C23CC4CC(CC(C4)C2)C3)NC(=O)[C@H](CCCN)NC(=O)[C@@H]2CCCN2C(=O)[C@@H](Cc2ccccc2)NC(=O)[C@H](CCCN)NC1=O"
  MIC [µg/mL]: 8
- molecule: "CC(C)C[C@@H]1NC(=O)[C@H](CCCN)NC(=O)[C@H](C23CC4CC(CC(C4)C2)C3)NC(=O)[C@H](CCCN)NC(=O)[C@@H]2CCCN2C(=O)[C@@H](Cc2ccccc2)NC(=O)[C@H](CCCN)NC(=O)[C@H](CC23CC4CC(CC(C4)C2)C3)NC(=O)[C@H](CCCN)NC(=O)[C@H](C(C)C)NC(=O)[C@H](CCCN)NC(=O)[C@@H]2CCCN2C(=O)[C@@H](Cc2ccccc2)NC(=O)[C@H](CCCN)NC1=O"
  MIC [µg/mL]: 8
- molecule: "CC(C)C[C@@H]1NC(=O)[C@H](CCCN)NC(=O)[C@H](C(C)C)NC(=O)[C@@H]2CCCN2C(=O)[C@@H](Cc2ccccc2)NC(=O)[C@H](CC(C)C)NC(=O)[C@H](CCCN)NC(=O)[C@H](C(C)C)NC(=O)[C@H](CCCN)NC(=O)[C@H](CC(C)C)NC(=O)[C@@H]2CCCN2C(=O)[C@@H](Cc2ccccc2)NC(=O)[C@H](C(C)C)NC(=O)[C@H](CCCN)NC1=O (cyclo(L[Orn]V[Orn]L[dF]PV[Orn]L[Orn]V[dF]P))"
  MIC [µg/mL]: 16
